Please go through the items and note down their Potency.
# Test system: Rattus norvegicus
# ASSAY_SUMMARY: Ability to inhibit growth hormone release in vivo in sodium pentobarbital anesthetized rats
# Type: functional
Kindly answer with a numeric value in %, unit omitted.

Identify the measured Potency of CC(C)[C@@H]1NC(=O)[C@H](CCCCN)NC(=O)[C@@H](Cc2c[nH]c3ccccc23)NC(=O)[C@H](Cc2ccc(O)cc2)NC(=O)[C@@H](NC(=O)[C@H](N)Cc2ccccc2)CSSC[C@H](CN[C@H](C(N)=O)[C@@H](C)O)NC1=O for Rattus norvegicus.
73

Follow-up item: CC(C)[C@@H]1NC(=O)[C@H](CCCCN)NC[C@@H](Cc2c[nH]c3ccccc23)NC(=O)[C@H](Cc2ccc(O)cc2)NC(=O)[C@@H](NC(=O)[C@H](N)Cc2ccccc2)CSSC[C@@H](C(=O)N[C@H](C(N)=O)[C@@H](C)O)NC1=O
2

Follow-up item: CC(C)[C@@H]1NC(=O)[C@H](CCCCN)NC(=O)[C@@H](Cc2c[nH]c3ccccc23)NC(=O)[C@H](Cc2ccc(O)cc2)NC(=O)[C@@H](NC[C@@H](N)Cc2ccccc2)CSSC[C@@H](C(=O)N[C@H](C(N)=O)[C@@H](C)O)NC1=O
160

Follow-up item: CC(C)[C@@H]1NC[C@H](CCCCN)NC(=O)[C@@H](Cc2c[nH]c3ccccc23)NC(=O)[C@H](Cc2ccc(O)cc2)NC[C@@H](NC(=O)[C@H](N)Cc2ccccc2)CSSC[C@@H](C(=O)N[C@H](C(N)=O)[C@@H](C)O)NC1=O
65

Follow-up item: CC(C)[C@@H]1NC(=O)[C@H](CCCCN)NC(=O)[C@@H](Cc2c[nH]c3ccccc23)NC[C@H](Cc2ccc(O)cc2)NC(=O)[C@@H](NC(=O)[C@H](N)Cc2ccccc2)CSSC[C@@H](C(=O)N[C@H](C(N)=O)[C@@H](C)O)NC1=O
20

Follow-up item: CC(C)[C@@H]1CN[C@H](C(=O)N[C@H](C(N)=O)[C@@H](C)O)CSSC[C@H](NC(=O)[C@H](N)Cc2ccccc2)C(=O)N[C@@H](Cc2ccc(O)cc2)C(=O)N[C@H](Cc2c[nH]c3ccccc23)CN[C@@H](CCCCN)C(=O)N1
2
